- protocol notes: amyloid nucleation score (Sup35N fusion, yeast selection) (log enrichment); library NNK3; higher = more nucleation; inactive = no reads after selection;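 note: zero at mode of non-aggregating sequences after 7 days selection at 30°C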
measured quantity: amyloid nucleation score

The following substances have reported results that may help.
substance	amyloid nucleation score
ITRDDTCSVYRLVK	inactive
TMYIAHGELGFIRNHLDISR	1.04
LKFEVVMVLFSTIC	inactive
IGRTCMCLYSAVVFIRHGTT	inactive
LMGKTHFLSVVWVVQVG	inactive
QTDMWIDTWKVQPVWIEDEG	inactive
NLSLFWMWELGKFYHGDRTA	2.23
IKGQSLSNSVFWSGGLDLRV	inactive

// lookup amyloid nucleation score for TVVLSWPMYAECKFSCICMT
1.38
